Hi there, I'd appreciate the recorded abundance fitness for every entry that follows.
B1: Kinesin-like protein KIF16B, residues 1213 to 1273; numbered along this chain, Q96L93 (parent)
chain: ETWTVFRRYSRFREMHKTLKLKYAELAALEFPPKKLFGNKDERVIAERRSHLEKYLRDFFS

# Variants of: B1
# ASSAY_REMARKS: abundance fitness (aPCA) (normalised: wild type 0, dead -1); higher = more abundant; growth selection in yeast, the domain comes from the species named
# CONDITION_DETAILS: Homo sapiens
Give bare numbers.

[[record]]
mutation_key = "H16L"
experimental_value = 0.379

[[record]]
mutation_key = "F6H"
experimental_value = -0.541


Record abundance fitness per entry; entries follow.
1. E14C
2. V5G
3. E47K
4. L19N
5. R8G
6. E1G
7. Y23E
8. E30D

Data returned:
[-0.319, 0.22, -0.011, -0.658, 0.097, -0.62, -0.897, 0.08]

Record abundance fitness per entry; entries follow.
1. K54C
2. T18G
3. L29A
4. E53K
5. A46W
6. K20Y
7. L26V

Data returned:
-0.785
-0.237
0.172
0.391
-0.176
-1
-0.364
